Hey, just so you know, these numbers are from the supplement of paper PMC11208160.

Reported recombinant UMI read abundance (log10) values are given for each entry in this list.
Test: recombinant UMI read abundance after kanamycin selection (control-corrected) (log10(CPM+1)); higher = more efficient recombination; extreme values may be limits of the assay; sequences stand for … in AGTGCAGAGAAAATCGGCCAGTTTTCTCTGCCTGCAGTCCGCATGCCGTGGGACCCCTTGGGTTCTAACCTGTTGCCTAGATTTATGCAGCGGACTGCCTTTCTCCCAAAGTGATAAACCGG…AGGTTGGTTTCACT; site = the 11-nt donor;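 also: IS621 bridge recombinase in Escherichia coli cells against a fixed T5 target plasmid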

Please review the following examples before continuing.
AGAGTGCCATGGACCGGTTTTCCCGGTAATCCGTATTTGGG (site AGAGTGCCTCC): 0.0257
GGCCACCCATGGACCGGTTTTCCCGGTAATCCGTATTTGTT (site GGCCAGCCTAA): 0

Entry TCATAGTCATGGACCGGTTTTCCCGGTAATCCGTATTTGCA (site TCATAGTCTTG) needs its recombinant UMI read abundance (log10) filled in; supply it. 2.25

Entry CCGGTATCATGGACCGGTTTTCCCGGTAATCCGTATTTGAC (site CCGGTATCTGT) needs its recombinant UMI read abundance (log10) filled in; supply it. 1.45

Entry AATGTATCATGGACCGGTTTTCCCGGTAATCCGTATTTGCT (site AATGTAACTAG) needs its recombinant UMI read abundance (log10) filled in; supply it. 0.796

* * *

Test: recombinant UMI read abundance after kanamycin selection (control-corrected) (log10(CPM+1)); higher = more efficient recombination; extreme values may be limits of the assay; sequences stand for … in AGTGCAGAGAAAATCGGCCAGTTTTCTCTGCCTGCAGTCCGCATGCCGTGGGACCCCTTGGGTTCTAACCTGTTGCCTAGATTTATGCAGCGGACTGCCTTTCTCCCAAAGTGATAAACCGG…AGGTTGGTTTCACT; site = the 11-nt donor
Respond with criterion met for recombinant UMI read abundance (log10) values of 0.009 and above, criterion not met for values below.

CTATGCTCATGGACCGGTTTTCCCGGTAATCCGTATTTGAA (site CGATGCTCTTT): criterion met
AGGCTTTCATGGACCGGTTTTCCCGGTAATCCGTATTTGGC (site AGGCTTTCTGC): criterion met
AGACATCCATGGACCGGTTTTCCCGGTAATCCGTATTTGAC (site AGACATCCTGT): criterion not met

Threshold query (recombinant UMI read abundance (log10) >= 0.009) on GGAACGTCATGGACCGGTTTTCCCGGTAATCCGTATTTGTT (site GGTACGTCTAA) criterion not met

Threshold query (recombinant UMI read abundance (log10) >= 0.009) on TAGAACACATGGACCGGTTTTCCCGGTAATCCGTATTTGCA (site TAGAAGACTTG) criterion met

Threshold query (recombinant UMI read abundance (log10) >= 0.009) on ATCCGAGCATGGACCGGTTTTCCCGGTAATCCGTATTTGAG (site ATCCGAGCTCT) criterion met

Threshold query (recombinant UMI read abundance (log10) >= 0.009) on CAAGCTCCATGGACCGGTTTTCCCGGTAATCCGTATTTGTG (site CAAGCGCCTCA) criterion met

Threshold query (recombinant UMI read abundance (log10) >= 0.009) on CGGTCATCATGGACCGGTTTTCCCGGTAATCCGTATTTGCT (site CGTTCATCTAG) criterion met

Threshold query (recombinant UMI read abundance (log10) >= 0.009) on CCGTTAGCATGGACCGGTTTTCCCGGTAATCCGTATTTGTG (site TCGTTAGCTCA) criterion not met

Threshold query (recombinant UMI read abundance (log10) >= 0.009) on ACTAAAACATGGACCGGTTTTCCCGGTAATCCGTATTTGAG (site ACTATAACTCT) criterion met
